Where do these numbers come from? They come from patent US20210253568A1.

pKi: −log10 of the molar value.
For ROCK 2 (Homo sapiens, UniProt O75116), measured pKi is reported for the entries below.

// query Request - read-out pKi | tested on ROCK 2 (Homo sapiens, UniProt O75116) | molecule c1cc(-c2c[nH]c3nccc(Oc4ccc5c(c4)CNCC5)c23)cc(NCC2CCOCC2)n1
// result > 8.52

// query Ok, now NCc1cc(F)c(Oc2ncnc3[nH]cc(-c4ccnc(NCc5ccccc5)c4)c23)c(F)c1
// result > 8.52

// query Ok, now NCc1cc(F)c(Oc2ccnc3[nH]cc(-c4ccnc(NC(=O)C5CC5)c4)c23)c(F)c1
// result > 8.52

// query Ok, now Cn1cc(-c2c[nH]c3nccc(Oc4ccc5c(c4)CNCC5)c23)cn1
// result > 8.52

// query Ok, now c1ccc(CNc2ccnc(-c3c[nH]c4nccc(Oc5ccc6c(c5)CNCC6)c34)n2)cc1
// result < 7.52

// query Ok, now c1ccc(CNc2cncc(-c3c[nH]c4nccc(Oc5ccc6c(c5)CNCC6)c34)c2)cc1
// result > 8.52

// query Ok, now CN(C(=O)Nc1cc(-c2c[nH]c3nccc(Oc4ccc5c(c4)CNCC5)c23)ccn1)C1CCCCC1
// result > 8.52

// query Ok, now NCc1ccc(Oc2ccnc3[nH]cc(-c4cccc(OCc5ccccc5)c4)c23)cc1
// result < 7.52
